target: Bcl-2-like protein 10 (Homo sapiens); experiment: TR3 peptide-Bcl-B binding displacers, biochemical primary FP assay, phenotype converters (AID 1240); conditions: GST-Bcl-B / FITC-TR3 peptide fluorescence polarization; stronger effect = higher value; compound at 3.75 mg/L;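 also: 0% = Bcl-B with tracer peptide and DMSO and 100% = tracer peptide lacking Bcl-B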
Among all 50,000 compounds or so, about 800 (1.6%) showed an effect of 50% or more. Only a selection was taken, and strong results are over-represented in it overall.
Attribute measured: displacement (%)
Use % as the unit, but write only the number.

Use the examples below as a reference point.
CN1C(=O)NC(=O)/C(=C/c2ccc(-c3cccc([N+](=O)[O-])c3)o2)C1=O ... -20.5
O=C(O)Cn1cc(/C=C2\C(=O)NC(=O)N(c3ccc(Cl)cc3)C2=O)c2ccccc21 ... -16.9

Could you share what displacement was measured for `Cc1cc(C=C2C(=O)NC(=S)NC2=O)c(C)n1-c1ccccc1` , tested on Bcl-2-like protein 10 (Homo sapiens)?
104

Same question for `CN1C(=O)NC(=O)/C(=C/c2ccc(-c3ccc([N+](=O)[O-])cc3Br)o2)C1=O` please.
-9.1

Same question for `C=CCn1cc(C=C2C(=O)NC(=O)NC2=O)c2ccccc21` please.
16.3

Same question for `O=C1c2ccccc2-c2onc3c(Br)cc(N4CC4)c1c23` please.
178

Same question for `COc1cc(C=C2C(=O)NC(=O)NC2=O)ccc1OCc1ccc(C(=O)O)cc1` please.
0.6

Same question for `Cc1ccc(N2C(=O)NC(=O)/C(=C\c3cn(CC(=O)O)c4ccccc34)C2=O)cc1` please.
183

Same question for `O=C1NC(=O)N(Cc2ccccc2)C(=O)/C1=C/c1ccc2c(c1)OCO2` please.
13.8

Same question for `C=CCc1cc(/C=C2\C(=O)NC(=O)N(c3cc(C)cc(C)c3)C2=O)cc(OC)c1O` please.
-5.3

Same question for `CN1C(=O)NC(=O)/C(=C/c2ccc(-c3ccc([N+](=O)[O-])cc3)o2)C1=O` please.
3.6

Same question for `CCn1cc(C=C2C(=O)NC(=S)NC2=O)c2ccccc21` please.
136

Same question for `COc1ccc(C=C2C(=O)NC(=O)NC2=O)cc1OCc1ccc(Cl)cc1Cl` please.
150

Same question for `O=C1NC(=O)N(Cc2ccccc2)C(=O)/C1=C\C=C\c1ccco1` please.
11.3

Same question for CC(C(=O)c1ccc(Cl)cc1Cl)n1cncn1 (centres undefined) please.
-2.3

Same question for `Cc1cc(/C=C2\C(=O)NC(=O)N(C)C2=O)c(C)n1-c1ccc2c(c1)OCO2` please.
107

Same question for `O=[N+]([O-])c1ccc(CNCCc2cccc(F)c2)cc1` please.
2.2

Same question for `COc1ccc(C=C2C(=O)NC(=S)NC2=O)cc1OCc1ccccc1Cl` please.
8.2

Same question for `O=c1c2ccccc2nc(-c2cccs2)n1-c1ccccn1` please.
19.3

Same question for `O=Cc1cn(Cc2ccc(Br)cc2)c2ccccc12` please.
0.2

Same question for `O=C(CNS(=O)(=O)c1ccccc1)Nc1ccc(Br)cc1C(=O)c1ccccc1` please.
12

Same question for `COc1ccc(Br)cc1CN1CCN(C(=O)COc2ccccc2)CC1` please.
2.5

Same question for `CN1C(=O)C(=Cc2ccccc2Cl)C(=O)N(C)C1=O` please.
-0.3

Same question for CCC(C)N1CCN(C(=O)COc2ccc(Cl)cc2)CC1 (centres undefined) please.
9.2

Same question for `O=c1oc2ccccc2c2c1C(c1ccc(Cl)cc1)c1c(c3ccccc3oc1=O)O2` please.
10.3

Same question for `O=C1NC(=O)C(=Cc2ccc(N3CCOCC3)cc2)C(=O)N1` please.
78.9

* * *

molecular target: Bcl-2-like protein 10 (Homo sapiens); test: TR3 peptide-Bcl-B binding displacers, biochemical primary FP assay, phenotype converters (AID 1240); settings: GST-Bcl-B / FITC-TR3 peptide fluorescence polarization; stronger effect = higher value; compound at 3.75 mg/L;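 also: 0% = Bcl-B with tracer peptide and DMSO and 100% = tracer peptide lacking Bcl-B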
Out of some 50,000 compounds screened, about 800 (1.6%) showed an effect of 50% or more. Shown is part of a subset that was picked to be rich in strong results.
I would appreciate it if you labelled entries TRUE when displacement is 20% or higher, otherwise FALSE.

COc1cccc(-n2c(/C=C/c3ccco3)nc3ccccc3c2=O)c1 ... TRUE
COc1ccccc1-n1c(/C=C/c2ccccc2O)nc2ccccc2c1=O ... FALSE
O=C1NC(=O)C(=Cc2ccc(-c3cc([N+](=O)[O-])ccc3O)o2)C(=O)N1 ... TRUE
Cc1cc(C=C2C(=O)NC(=O)NC2=O)c(C)n1-c1ccc(N(C)C)cc1 ... FALSE
O=C(N/N=C1/CN2CCC1CC2)c1ccc(O)cc1 ... FALSE
O=c1c2ccccc2nc(/C=C/c2ccc(O)c(O)c2)n1-c1ccccc1 ... FALSE

Could you please find out whether `COc1cccc(-n2c(/C=C/c3ccc(O)c(O)c3)nc3ccccc3c2=O)c1` has displacement that meets 20% or exceeds it?
TRUE

Same question for `COc1ccccc1-n1c(/C=C/c2ccc(O)cc2)nc2ccccc2c1=O` please.
TRUE

Same question for `Cc1cc(C)cc(N2C(=O)NC(=O)/C(=C\C=C\c3ccccc3)C2=O)c1` please.
TRUE

Same question for `COc1ccccc1-n1c(/C=C/c2ccco2)nc2ccccc2c1=O` please.
FALSE

* * *

biological target: Bcl-2-like protein 10 (Homo sapiens); test: TR3 peptide-Bcl-B binding displacers, biochemical primary FP assay, phenotype converters (AID 1240); conditions: GST-Bcl-B / FITC-TR3 peptide fluorescence polarization; stronger effect = higher value; compound at 3.75 mg/L;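 also: 0% = Bcl-B with tracer peptide and DMSO and 100% = tracer peptide lacking Bcl-B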
Screen size: about 50,000 compounds; about 800 (1.6%) showed an effect of 50% or more. This is one part of a sample in which strong results are shown more often than they occur.
Quick reference for displacement among some molecules
Use % as the unit, but write only the number.

Entry under review: `CN1C(=O)C(=Cc2cccc(OCCOc3ccc([N+](=O)[O-])cc3)c2)C(=O)N(C)C1=O` . Reported displacement?
6.4

Same question for `CCNc1cc2oc(=O)cc(C(F)(F)F)c2cc1C` please.
105

Same question for `COC(=O)COc1ccc(/C=C2\C(=O)NC(=S)N(c3ccc(C)cc3)C2=O)cc1OC` please.
-13.5

Same question for `O=c1[nH]c2ccccc2c(=O)n1-c1ccccc1` please.
-12.7

Same question for `O=C1NC(=O)N(c2cccc(Br)c2)C(=O)/C1=C/c1ccco1` please.
5.2

Same question for `Cc1cc(C)cc(-n2c(C)cc(C=C3C(=O)NC(=O)NC3=O)c2C)c1` please.
13.1

Same question for `Cc1cc(C=C2C(=O)NC(=O)NC2=O)c(C)n1C1CCCCC1` please.
124

Same question for `COC(=O)C(=O)/C(=C\c1ccc(-c2ccccc2[N+](=O)[O-])o1)C(=O)c1ccccc1` please.
56.7

Same question for `Cc1ccc(N2C(=O)NC(=O)/C(=C\C=C\c3ccccc3)C2=O)cc1` please.
21.4

Same question for `O=c1[nH]c(=O)n(-c2ccccc2)c(O)c1N=Nc1ccc(Br)cc1` please.
120

Same question for `O/N=C1/C(=C/c2ccccc2)N2CCC1CC2` please.
10.6

Same question for `O=C(Nc1ccc(Cl)c(-c2nc3ncccc3o2)c1)c1cccc(OCc2ccccc2)c1` please.
-2.6

* * *

target: Bcl-2-like protein 10 (Homo sapiens); assay: TR3 peptide-Bcl-B binding displacers, biochemical primary FP assay, phenotype converters (AID 1240); conditions: GST-Bcl-B / FITC-TR3 peptide fluorescence polarization; stronger effect = higher value; compound at 3.75 mg/L;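 also: 0% = Bcl-B with tracer peptide and DMSO and 100% = tracer peptide lacking Bcl-B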
Screen size: about 50,000 compounds; about 800 (1.6%) showed an effect of 50% or more. For the sample, strong results were picked, then their nearest neighbours and some compounds at random.
Attribute measured: displacement (%)
Use % as the unit, but write only the number.

Use the examples below as a reference point.
O=C(ON1CC1(C(F)(F)F)C(F)(F)F)c1ccccc1 (stereo not drawn) ... 3.2
O=C1NC(=O)C(=Cc2ccc3c(c2)OCO3)C(=O)N1 ... 0.3

Entry under review: `CC(C)CCn1c(=O)c(C(=O)Nc2ccc(I)cc2)c(O)c2ccccc21` . Reported displacement?
7.1

Same question for `CN1C(=O)NC(=O)/C(=C/c2cn(C)c3ccccc23)C1=O` please.
108

* * *

Quick reference for displacement among some compounds
molecular target: Bcl-2-like protein 10 (Homo sapiens) (UniProt Q9HD36); experiment: TR3 peptide-Bcl-B binding displacers, biochemical primary FP assay, phenotype converters (AID 1240); settings: GST-Bcl-B / FITC-TR3 peptide fluorescence polarization; stronger effect = higher value; compound at 3.75 mg/L;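 also: 0% = Bcl-B with tracer peptide and DMSO and 100% = tracer peptide lacking Bcl-B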
Sequence (Q9HD36 whole entry, looked up): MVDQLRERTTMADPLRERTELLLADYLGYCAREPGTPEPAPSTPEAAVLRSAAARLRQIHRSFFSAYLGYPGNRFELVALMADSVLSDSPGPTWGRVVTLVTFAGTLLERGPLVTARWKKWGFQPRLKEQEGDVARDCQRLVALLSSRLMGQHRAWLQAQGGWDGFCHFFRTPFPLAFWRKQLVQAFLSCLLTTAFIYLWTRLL
The whole screen tested about 50,000 compounds, of which about 800 (1.6%) showed an effect of 50% or more. The sample as a whole holds a higher share of strong results than the screen did.
Show the value, then the unit it is measured in.

Use the examples below as a reference point.
Cc1cc(C)cc(N2C(=O)NC(=O)/C(=C\c3cc(C)n(C)c3C)C2=O)c1 ... 90.5%
Cc1ccccc1-n1c(CN2C(=O)c3ccccc3C2=O)nc2ccccc2c1=O ... -9.6%
O=[N+]([O-])/C=C/c1ccccc1OCc1ccc(Cl)cc1Cl ... 4.5%

Entry under review: `C=CCOc1ccc(/C=C2\C(=O)NC(=O)N(CC=C)C2=O)cc1OC` . Reported displacement?
10.9%

Same question for `COc1ccc(OCC(=O)Nc2ccc(Br)cc2C(=O)c2ccccc2)cc1` please.
-8.4%

FYI, the data here is from PubChem BioAssay AID1240.
